# credit: patent US20190040149A1

Kindly state pKd for each of the entries shown.
- experimental_target: T1, human PD-1 (soluble antigen of the MSD assay, b-PD-1 monomer) (human, UniProt Q15116 25-170, limits assumed, biotinylated (b-PD-1), site not stated)
- T1 construct: The antigen format of the 'avid' measurement is not described
- T1 sequence (Q15116 25-170 limits assumed): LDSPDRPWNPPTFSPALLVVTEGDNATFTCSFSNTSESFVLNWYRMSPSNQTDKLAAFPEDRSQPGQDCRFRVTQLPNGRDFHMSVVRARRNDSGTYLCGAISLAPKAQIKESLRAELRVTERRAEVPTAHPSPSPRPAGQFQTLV
- test_details: MSD solution equilibrium titration, monovalent KD
One number for each entry, as −log10 of the molar value.

Sample records with pKd:
| binder | measurement_type | endpoint_value |
| --- | --- | --- |
| Antibody E, IgG1 format expressed in yeast (antibody, V domains shown, Tested in IgG1 format, expressed in yeast) VH: QVQLVQSGAEVKKPGASVKVSCKASGYTFTSNYMHWVRQAPGQGLEWMGIINPSEGSTGYAQKFQGRVTMTRDTSTSTVYMELSSLRSEDTAVYYCAKEGVADGYGLVDVWGQGTMVTVSS VL: EIVLTQSPATLSLSPGERATLSCRASQSVSSYLAWYQQKPGQAPRLLIYDASKRATGIPARFSGSGSGTDFTLTISSLEPEDFAVYYCDQRNNWPLTFGGGTKVEIK | pKd | 10.04 |
| Antibody B, IgG1 format expressed in yeast (antibody, V domains shown, Tested in IgG1 format, expressed in yeast) VH: QVQLVQSGAEVKKPGASVKVSCKASGYTFEGYYMHWVRQAPGQGLEWMGIINPEGGETSYAQKFQGRVTMTRDTSISTAYMELSRLRSDDTAVYYCAKEGVADGYGLVDVWGQGTMVTVSS VL: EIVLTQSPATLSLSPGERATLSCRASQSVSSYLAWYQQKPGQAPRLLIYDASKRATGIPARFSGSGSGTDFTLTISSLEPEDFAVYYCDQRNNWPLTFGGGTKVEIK | pKd | 9.89 |

Which measured pKd value corresponds to Antibody D, IgG1 format expressed in yeast (antibody, V domains shown, Tested in IgG1 format, expressed in yeast) VH: QVQLVQSGAEVKKPGASVKVSCKASGYTFEKYYMHWVRQAPGQGLEWMGIINPDGGSTGYAQKFQGRVTMTRDTSTSTVYMELSSLRSEDTAVYYCAKEGVADGYGLVDVWGQGTMVTVSS VL: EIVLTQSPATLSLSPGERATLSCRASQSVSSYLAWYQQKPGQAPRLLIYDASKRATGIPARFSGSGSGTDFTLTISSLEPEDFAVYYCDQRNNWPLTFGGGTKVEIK ?
9.52
